System: Saccharomyces cerevisiae BY4741 SeMeCo community
Test: z-score of subpopulation abundance vs DMSO median, subpopulation auxotrophic for HM; higher = larger share of this subpopulation than in DMSO controls
Conditions: 10 µM; 24 h; SM minimal medium; subpopulation (auxotrophy): HM
Where a name gives a salt, the structure may show the parent alone.
yes (1) means recorded z-score of subpopulation abundance is -0.04 or above; no (0) means it is below -0.04.

Field: example entries. Status: answers known.
CC(C)(C)C1CCC(CC2=C(O)c3ccccc3C(=O)C2=O)CC1 (stereo unspecified)	yes (1)
CN1C2CCCC1CC(NC(=O)c1nn(C)c3ccccc13)C2 (stereo unspecified) [Granisetron]	yes (1)

Task item: Is z-score of subpopulation abundance for O=C(O)C1=C(CSc2nnnn2CS(=O)(=O)O)CS[C@@H]2[C@H](NC(=O)[C@H](O)c3ccccc3)C(=O)N12 [Cefonicid sodium] at or above -0.04?
Reply: no (0)

Task item: Is z-score of subpopulation abundance for "C#C[C@]1(O)CC[C@H]2[C@@H]3CCc4cc(OC)ccc4[C@H]3CC[C@@]21C" at or above -0.04?
Reply: no (0)

Task item: Is z-score of subpopulation abundance for COc1cc(NC(C)CCCN)c2ncccc2c1 (stereo unspecified) [Primaquine Diphosphate] at or above -0.04?
Reply: yes (1)

Task item: Is z-score of subpopulation abundance for "N=C(N)NS(=O)(=O)c1ccc(N)cc1" at or above -0.04?
Reply: no (0)

Task item: Is z-score of subpopulation abundance for Nc1c(Br)cc(Br)cc1CN[C@H]1CC[C@H](O)CC1 [Ambroxol HCl] at or above -0.04?
Reply: no (0)

Task item: Is z-score of subpopulation abundance for CCN(CC)CCOCCOC(=O)C1(c2ccccc2)CCCC1 [Pentoxyverine Citrate] at or above -0.04?
Reply: no (0)

Task item: Is z-score of subpopulation abundance for "N#Cc1ccc(Oc2ccc3c(c2)COB3O)cc1" at or above -0.04?
Reply: yes (1)

Task item: Is z-score of subpopulation abundance for "CCC(C)(C)C(=O)O[C@H]1C[C@@H](C)C=C2C=C[C@H](C)[C@H](CC[C@@H]3C[C@@H](O)CC(=O)O3)[C@H]21" at or above -0.04?
Reply: yes (1)

Task item: Is z-score of subpopulation abundance for CC(C)[C@H](N)C(=O)OCCOCn1cnc2c(=O)nc(N)[nH]c21 [Valaciclovir HCl] at or above -0.04?
Reply: no (0)

Task item: Is z-score of subpopulation abundance for CCCNCC(O)COc1ccccc1C(=O)CCc1ccccc1 (stereo unspecified) [Propafenone HCl] at or above -0.04?
Reply: no (0)

Task item: Is z-score of subpopulation abundance for "CCOC(=O)c1ccc(O)cc1" at or above -0.04?
Reply: no (0)

Task item: Is z-score of subpopulation abundance for CCCCCOc1ccc(-c2cc(-c3ccc(C(=O)N[C@H]4C[C@@H](O)[C@@H](O)NC(=O)[C@@H]5[C@@H](O)[C@@H](C)CN5C(=O)[C@H]([C@H](O)CC(N)=O)NC(=O)[C@H]([C@H](O)[C@@H](O)c5ccc(O)c(OS(=O)(=O)O)c5)NC(=O)[C@@H]5C[C@@H](O)CN5C(=O)[C@H]([C@@H](C)O)NC4=O)cc3)no2)cc1 [Micafungin Sodium] at or above -0.04?
Reply: yes (1)

Task item: Is z-score of subpopulation abundance for Cc1cccc(N(C)C(=S)Oc2ccc3ccccc3c2)c1 [Tolnaftate] at or above -0.04?
Reply: no (0)

* * *

Test system: Saccharomyces cerevisiae BY4741 SeMeCo community
Assay: z-score of subpopulation abundance vs DMSO median, subpopulation auxotrophic for H; higher = larger share of this subpopulation than in DMSO controls
Details: 10 µM; 24 h; SM minimal medium; subpopulation (auxotrophy): H
Structures can show the parent of a compound that is named as a salt.
Met means recorded z-score of subpopulation abundance is -0.7 or above; Not met means it is below -0.7.

Field: example entries. Status: answers known.
CC1(C)[C@H](C(=O)O)N2C(=O)C[C@H]2S1(=O)=O [Sulbactam sodium]	Met
O=C(Cn1cnnn1)N[C@@H]1C(=O)N2C(C(=O)O)=C(CSc3nncs3)CS[C@H]12 [Ceftezole sodium]	Not met
CC[C@H](C)C(=O)O[C@H]1C[C@@H](C)C=C2C=C[C@H](C)[C@H](CC[C@@H]3C[C@@H](O)CC(=O)O3)[C@H]21	Met
Cc1cc(NS(=O)(=O)c2ccc(N)cc2)no1 [Sulfamethoxazole sodium]	Not met
CN(Cc1cnc2nc(N)nc(N)c2n1)c1ccc(C(=O)N[C@@H](CCC(=O)O)C(=O)O)cc1 [Methotrexate disodium]	Met
COc1cccc2c1C(=O)c1c(O)c3c(c(O)c1C2=O)C[C@@](O)(C(=O)CO)C[C@@H]3O[C@H]1C[C@H](N)[C@@H](O)[C@H](C)O1 [Epirubicin HCl]	Met

Task item: Is z-score of subpopulation abundance for "CO[C@@H]1[C@H](OC(=O)/C=C/C=C/C=C/C=C/C(=O)O)CC[C@]2(CO2)[C@H]1[C@@]1(C)O[C@@H]1CC=C(C)C" at or above -0.7?
Reply: Met

Task item: Is z-score of subpopulation abundance for "Oc1ccc(Cl)c2cccnc12" at or above -0.7?
Reply: Met

Task item: Is z-score of subpopulation abundance for "C[C@]1(Cn2ccnn2)[C@H](C(=O)O)N2C(=O)C[C@H]2S1(=O)=O" at or above -0.7?
Reply: Not met

Task item: Is z-score of subpopulation abundance for "CCC1(c2ccccc2)C(=O)NCNC1=O" at or above -0.7?
Reply: Met

Task item: Is z-score of subpopulation abundance for "CC[C@H](C)[C@H](N)C1=N[C@H](C(=O)N[C@@H](CC(C)C)C(=O)N[C@H](CCC(=O)O)C(=O)N[C@H](C(=O)N[C@H]2CCCCNC(=O)[C@H](CC(N)=O)NC(=O)[C@@H](CC(=O)O)NC(=O)[C@H](Cc3cnc[nH]3)NC(=O)[C@@H](Cc3ccccc3)NC(=O)[C@H]([C@@H](C)CC)NC(=O)[C@@H](CCCN)NC2=O)[C@@H](C)CC)CS1" at or above -0.7?
Reply: Met

Task item: Is z-score of subpopulation abundance for "Cc1cnc(NC(=O)C2=C(O)c3ccccc3S(=O)(=O)N2C)s1" at or above -0.7?
Reply: Met

* * *

Test system: Saccharomyces cerevisiae BY4741 SeMeCo community
Assay: z-score of subpopulation abundance vs DMSO median, subpopulation auxotrophic for HUM; higher = larger share of this subpopulation than in DMSO controls
Conditions: 10 µM; 24 h; SM minimal medium; subpopulation (auxotrophy): HUM
Counter-ions that a name gives are not always drawn.
z-score of subpopulation abundance values by entry
# respond with the number and nothing more

CCCCOc1cc(C(=O)NCCN(CC)CC)c2ccccc2n1 [Dibucaine HCl]	0.03
C[C@]12CC[C@@H]3c4ccc(O)cc4C[C@@H](CCCCCCCCC[S+]([O-])CCCC(F)(F)C(F)(F)F)[C@H]3[C@@H]1CC[C@@H]2O (stereo partly specified) [Fulvestrant]	1.23
Oc1cccc(O)c1 [Resorcinol]	-0.96

For record O=c1cc(-c2ccc(O)c(O)c2)oc2cc(O)cc(O)c12 [Luteolin] the listed z-score of subpopulation abundance is -0.43

For record CC1=C[C@H]2C(=O)O[C@H]3C[C@@H](C/C=C(\C)C[C@@H](C)/C=C/C=C4\CO[C@H](/C1=N\O)[C@@]42O)O[C@@]1(CC[C@H](C)[C@@H](C)O1)C3.CC[C@H]1O[C@]2(CC[C@@H]1C)C[C@@H]1C[C@@H](C/C=C(\C)C[C@@H](C)/C=C/C=C3\CO[C@@H]4/C(=N\O)C(C)=C[C@@H](C(=O)O1)[C@]34O)O2 [Milbemycin Oxime] the listed z-score of subpopulation abundance is 0.03

For record CCOc1cc(N)c(Cl)cc1C(=O)NCC1CN(Cc2ccc(F)cc2)CCO1 (stereo unspecified) [Mosapride Citrate] the listed z-score of subpopulation abundance is 0.97

* * *

z-score of subpopulation abundance values by entry
Test system: Saccharomyces cerevisiae BY4741 SeMeCo community
Test: z-score of subpopulation abundance vs DMSO median, subpopulation auxotrophic for LUM; higher = larger share of this subpopulation than in DMSO controls
Details: 10 µM; 24 h; SM minimal medium; subpopulation (auxotrophy): LUM
Where a name gives a salt, the structure may show the parent alone.
# respond with the number and nothing more

Record excerpt, results attached:
C#CCC(Cc1cnc2nc(N)nc(N)c2n1)c1ccc(C(=O)N[C@@H](CCC(=O)O)C(=O)O)cc1 (stereo not given in full) [Pralatrexate]	-1.33
COc1ccc(Cc2cnc(N)nc2N)cc1OC [Diaveridine]	-0.41
Oc1c(I)cc(Cl)c2cccnc12 [Clioquinol]	9.68

Log: Saccharomyces cerevisiae BY4741 SeMeCo community, compound CCn1cc(C(=O)O)c(=O)c2cc(F)c(N3CCNC(C)C3)c(F)c21 (stereo not given) [Lomefloxacin HCl] , z-score of subpopulation abundance = 1.32

Log: Saccharomyces cerevisiae BY4741 SeMeCo community, compound Cc1c(C(N)=O)cc([N+](=O)[O-])cc1[N+](=O)[O-] [Dinitolmide] , z-score of subpopulation abundance = -0.13

Log: Saccharomyces cerevisiae BY4741 SeMeCo community, compound CCOC(=O)C1=C(C)NC(C)=C(C(=O)OC)C1c1cccc(Cl)c1Cl (stereo not given) [Felodipine] , z-score of subpopulation abundance = -4.09

Log: Saccharomyces cerevisiae BY4741 SeMeCo community, compound CC[C@H](C)C(=O)O[C@H]1C[C@@H](C)C=C2C=C[C@H](C)[C@H](CC[C@@H]3C[C@@H](O)CC(=O)O3)[C@H]21 [Lovastatin] , z-score of subpopulation abundance = 0.48

Log: Saccharomyces cerevisiae BY4741 SeMeCo community, compound CCOC(=O)CCC(=O)O[C@H]1[C@H](O[C@@H]2[C@@H](C)[C@H](O[C@H]3C[C@@](C)(OC)[C@@H](O)[C@H](C)O3)[C@@H](C)C(=O)O[C@H](CC)[C@@](C)(O)[C@H](O)[C@@H](C)C(=O)[C@H](C)C[C@@]2(C)O)O[C@H](C)C[C@@H]1N(C)C [Erythromycin Ethylsuccinate] , z-score of subpopulation abundance = 2.68

Log: Saccharomyces cerevisiae BY4741 SeMeCo community, compound Cc1cccc(C)c1NC(=O)C1CCCCN1C (stereo not given) [Mepivacaine HCl] , z-score of subpopulation abundance = 0.38

Log: Saccharomyces cerevisiae BY4741 SeMeCo community, compound CCOC(=O)c1ccc(N)cc1 [Benzocaine] , z-score of subpopulation abundance = -0.29

Log: Saccharomyces cerevisiae BY4741 SeMeCo community, compound Clc1ccc(CSC(Cn2ccnc2)c2ccc(Cl)cc2Cl)cc1 (stereo not given) [Sulconazole Nitrate] , z-score of subpopulation abundance = 0.84

Log: Saccharomyces cerevisiae BY4741 SeMeCo community, compound CC(=O)Oc1ccc(C(=C2CCCCC2)c2ccc(OC(C)=O)cc2)cc1 [Cyclofenil] , z-score of subpopulation abundance = -0.06

Log: Saccharomyces cerevisiae BY4741 SeMeCo community, compound CCOc1cc(N)c([N+](=O)[O-])cc1C(=O)NC1CCN(CC2CC=CCC2)CC1 (stereo not given) [Cinitapride Hydrogen Tartrate] , z-score of subpopulation abundance = 0.94

Log: Saccharomyces cerevisiae BY4741 SeMeCo community, compound CCC(=O)Oc1ccc2c(c1)CCC1C2CCC2(C)C(OC(=O)CC)CCC12 (stereo not drawn) [Estradiol dipropionate(17-Beta-Estradiol-3,17-Dipropionate)] , z-score of subpopulation abundance = -0.6

Log: Saccharomyces cerevisiae BY4741 SeMeCo community, compound OCCN1CCN(CCCN2c3ccccc3Sc3ccc(C(F)(F)F)cc32)CC1 [Fluphenazine dihydrochloride] , z-score of subpopulation abundance = 0.9
